From: ChEMBL document CHEMBL1811834

assay: Inhibition of beta-hematine formation after 18 to 24 hrs by ferriprotoporphyrin 9 biomineralization inhibition test; format: functional
Measured quantity: IC50 (µM)

> print(dat)
                                   compound  assay.value
1              Clc1ccc2c(NCc3ccccc3)ccnc2c1         46.5
2  O=C1CSC(c2ccc3c(c2)OCO3)N1CCNc1ccnc2cc(Cl)ccc12 (stereo not drawn)         58.4
3  CCN(CC)CCCC(C)Nc1ccnc2cc(Cl)ccc12 (stereo not drawn) [CHLOROQUINE]         22.3

###

test system: Plasmodium falciparum; test: Antimalarial activity against erythrocytic stage multidrug-resistant Plasmodium falciparum Dd2 after 48 hrs by fluorescence spectrophotometer; type: functional, organism-based; settings: Dd2, 48 h
pIC50: −log10 of the molar value.
Measured quantity: pIC50

> print(dat)
                                   compound  assay.value
1  O=C1CSC(c2ccc3c(c2)OCO3)N1CCNc1ccnc2cc(Cl)ccc12 (configuration not stated)         6.12
2              Clc1ccc2c(NCc3ccccc3)ccnc2c1         6.48
